Test system: HEK293 cells
Experiment: Cell-based killing assay of payloads (CellTiter-Glo), HEK293 cells
Parameters: species or system human
Details: Homo sapiens, HEK293, 120 h; 5-day incubation
reportedEndpoint: pIC50
// pIC50 is dimensionless: -log10 of concentration (M)

>>> experimentalresult("C#CCCCON(C(=O)[C@@H](NC(=O)[C@H]1CCCCN1C)[C@@H](C)CC)[C@H](C[C@@H](OC(C)=O)c1nc(C(=O)N[C@@H](Cc2ccc(F)cc2)CC(C)(C)C(=O)O)cs1)C(C)C [Vd]")
9.23
>>> experimentalresult("C#CCCCCN(C(=O)[C@@H](NC(=O)[C@H]1CCCCN1C)[C@@H](C)CC)[C@H](C[C@@H](OC(C)=O)c1nc(C(=O)N[C@@H](Cc2ccc(N)cc2)CC(C)(C)C(=O)O)cs1)C(C)C [IVd]")
10.24
>>> experimentalresult("C#CCCCCN(C(=O)[C@@H](NC(=O)[C@H]1CCCCN1C)[C@@H](C)CC)[C@H](C[C@@H](OC(C)=O)c1nc(C(=O)N[C@@H](Cc2ccc(N)cc2)C[C@H](C)C(=O)O)cs1)C(C)C [IVg]")
9.27
>>> experimentalresult("C#CCCCCN(C(=O)[C@@H](NC(=O)[C@H]1CCCCN1C)[C@@H](C)CC)[C@H](C[C@@H](OC(C)=O)c1nc(C(=O)N[C@@H](Cc2ccc(F)cc2)CC(C)(C)C(=O)O)cs1)C(C)C [IVc]")
9.51
>>> experimentalresult("C#CCCCON(C(=O)[C@@H](NC(=O)[C@H]1CCCCN1C)[C@@H](C)CC)[C@H](C[C@@H](OC(C)=O)c1nc(C(=O)N[C@@H](Cc2ccccc2)CC(C)(C)C(=O)O)cs1)C(C)C [Vc]")
9.95
>>> experimentalresult("C#CCCCON(C(=O)[C@@H](NC(=O)[C@H]1CCCCN1C)[C@@H](C)CC)[C@H](C[C@@H](OC(=O)NCC)c1nc(C(=O)N[C@@H](Cc2ccc(N)cc2)CC(C)(C)C(=O)O)cs1)C(C)C [VIf]")
9.42

If you can, please state the reported pIC50 value of CCCCCON(C(=O)[C@@H](NC(=O)[C@H]1CCCCN1C)[C@@H](C)CC)[C@H](C[C@@H](OC(C)=O)c1nc(C(=O)N[C@@H](Cc2ccc(N)cc2)CC(C)(C)C(=O)O)cs1)C(C)C [Vb] . 9.54

If you can, please state the reported pIC50 value of CC[C@H](C)[C@H](NC(=O)[C@H]1CCCCN1C)C(=O)N(CCCCc1c[nH]nn1)[C@H](C[C@@H](OC(C)=O)c1nc(C(=O)N[C@@H](Cc2ccc(N)cc2)CC(C)(C)C(=O)O)cs1)C(C)C [IVj] . 7.75

====

Listed here: items and their measured H69AR % Kill 72 h.
Tested on: H69AR cells
Test: Cytotoxicity in panel of MDR cell lines, H69AR (72 h and 144 h)
Format: cell-based, human
Settings: 72 h incubation
Procedure: To test the ability of the disclosed tubulysin payloads to kill human cell lines, an in vitro cytotoxicity assay was performed. In vitro cytotoxicity of the disclosed payloads, as well as reference compounds, were evaluated using the CellTiter-Glo Assay Kit (Promega, Cat #G7573), in which the quantity of ATP present is used to determine the number of viable cells in culture. […] Relative luminescence units (RLU) were determined on a Victor plate reader (PerkinElmer). […]
The reply should contain only the number, in %.

# example entries with known answers
>>> experimentalresult("CCCCCCN(C(=O)[C@@H](NC(=O)[C@H]1CCCCN1C)[C@@H](C)CC)[C@H](C[C@@H](OC(C)=O)c1nc(C(=O)NC(Cc2ccc(F)c(NC)c2)CC(C)(C)C(=O)O)cs1)C(C)C (stereo partly drawn)")
96.3
>>> experimentalresult("CCCCCON(C(=O)[C@@H](NC(=O)[C@H]1CCCCN1C)[C@@H](C)CC)[C@H](C[C@@H](OC(C)=O)c1nc(C(=O)N[C@@H](Cc2ccc(N)cc2)CC(C)(C)C(=O)O)cs1)C(C)C")
97

Okay, now this molecule:
If you can, please state the reported H69AR % Kill 72 h value of "C#CCCCCN(C(=O)[C@@H](NC(=O)[C@H]1CCCCN1C)[C@@H](C)CC)[C@H](C[C@@H](OC(C)=O)c1nc(C(=O)N[C@@H](Cc2ccc(N)cc2)C[C@H](C)C(=O)O)cs1)C(C)C" . 95.7

Values from patent US12144864B2
